- SYSTEM_TESTED: MAP3K3 (Homo sapiens (Human))
- Sequence (Q99759 whole entry): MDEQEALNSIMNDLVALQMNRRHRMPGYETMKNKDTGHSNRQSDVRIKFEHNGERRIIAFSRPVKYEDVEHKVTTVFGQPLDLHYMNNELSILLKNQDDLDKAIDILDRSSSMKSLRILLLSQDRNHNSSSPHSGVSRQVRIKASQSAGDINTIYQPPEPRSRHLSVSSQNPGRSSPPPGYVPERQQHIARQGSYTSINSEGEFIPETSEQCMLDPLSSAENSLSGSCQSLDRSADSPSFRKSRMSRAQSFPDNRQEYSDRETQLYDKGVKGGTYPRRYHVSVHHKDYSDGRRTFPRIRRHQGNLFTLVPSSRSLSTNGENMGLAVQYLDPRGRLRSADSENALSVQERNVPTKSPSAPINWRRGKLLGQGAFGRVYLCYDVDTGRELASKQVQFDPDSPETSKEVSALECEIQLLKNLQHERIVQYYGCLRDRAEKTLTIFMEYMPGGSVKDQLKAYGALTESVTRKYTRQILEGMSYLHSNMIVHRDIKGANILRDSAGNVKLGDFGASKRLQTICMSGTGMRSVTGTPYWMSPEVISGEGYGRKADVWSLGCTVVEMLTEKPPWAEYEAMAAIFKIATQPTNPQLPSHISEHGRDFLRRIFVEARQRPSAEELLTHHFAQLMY
- ASSAY_NAME: KINATIV assay
- Assay type: cell-based
- SETUP_CONDITIONS: 1 μM, 90 minutes, BCWM.1 cells
ASSAY_METRIC: % change of MS signal compared to control sample (%)
Report only the number, with the unit % understood.

Sample records with % change of MS signal compared to control sample:
C=CC(=O)N1CCCCC(Nc2nccc(Nc3ncc(C(=O)Nc4c(C)cccc4C)s3)n2)C1 (stereo not shown)    42.8
C=CC(=O)N1CCC(CNc2nccc(Nc3ncc(C(=O)Nc4c(C)cccc4C)s3)n2)C1 (racemic)    7.9
C=CC(=O)N1CC[C@@H](Nc2nccc(Nc3ncc(C(=O)Nc4c(C)cccc4C)s3)n2)C1    −0.7

Could you now look at the following molecule, please?
Given C=CC(=O)N1CCC(Cn2ccc(Nc3ncc(C(=O)Nc4c(C)cccc4Cl)s3)n2)C1 (stereo not shown) , state its recorded % change of MS signal compared to control sample. 13.7

----------
- SYSTEM_TESTED: PIK3CB (Homo sapiens (Human), UniProt P42338)
- Sequence (P42338 whole entry): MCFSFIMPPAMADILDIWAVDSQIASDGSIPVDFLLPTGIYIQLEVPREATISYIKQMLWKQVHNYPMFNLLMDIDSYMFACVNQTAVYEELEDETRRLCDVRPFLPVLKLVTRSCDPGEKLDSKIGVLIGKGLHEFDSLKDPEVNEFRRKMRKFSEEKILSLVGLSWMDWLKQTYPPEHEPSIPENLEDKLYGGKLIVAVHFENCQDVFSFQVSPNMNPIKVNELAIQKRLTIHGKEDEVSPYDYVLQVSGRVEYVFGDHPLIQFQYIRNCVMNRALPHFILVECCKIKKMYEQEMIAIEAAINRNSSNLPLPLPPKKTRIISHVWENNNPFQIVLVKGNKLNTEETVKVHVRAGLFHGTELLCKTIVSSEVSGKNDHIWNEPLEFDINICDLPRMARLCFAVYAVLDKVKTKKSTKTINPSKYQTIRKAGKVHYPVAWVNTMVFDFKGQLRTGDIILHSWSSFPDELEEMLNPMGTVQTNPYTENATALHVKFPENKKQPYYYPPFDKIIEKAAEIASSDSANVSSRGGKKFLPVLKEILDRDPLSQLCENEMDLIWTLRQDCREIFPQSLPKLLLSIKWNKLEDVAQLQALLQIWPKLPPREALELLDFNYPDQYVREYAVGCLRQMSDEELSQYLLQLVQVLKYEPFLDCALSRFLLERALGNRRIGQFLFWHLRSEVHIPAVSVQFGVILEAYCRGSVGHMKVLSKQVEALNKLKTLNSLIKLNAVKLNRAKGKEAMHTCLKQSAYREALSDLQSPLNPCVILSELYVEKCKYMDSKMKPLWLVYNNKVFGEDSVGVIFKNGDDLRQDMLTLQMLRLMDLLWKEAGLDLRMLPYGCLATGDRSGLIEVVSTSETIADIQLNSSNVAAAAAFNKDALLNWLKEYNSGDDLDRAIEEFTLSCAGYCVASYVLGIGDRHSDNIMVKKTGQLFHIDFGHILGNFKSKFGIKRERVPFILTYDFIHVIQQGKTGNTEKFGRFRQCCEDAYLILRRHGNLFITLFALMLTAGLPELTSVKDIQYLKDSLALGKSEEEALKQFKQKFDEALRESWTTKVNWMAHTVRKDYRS
- Sequence (P27986 whole entry partner): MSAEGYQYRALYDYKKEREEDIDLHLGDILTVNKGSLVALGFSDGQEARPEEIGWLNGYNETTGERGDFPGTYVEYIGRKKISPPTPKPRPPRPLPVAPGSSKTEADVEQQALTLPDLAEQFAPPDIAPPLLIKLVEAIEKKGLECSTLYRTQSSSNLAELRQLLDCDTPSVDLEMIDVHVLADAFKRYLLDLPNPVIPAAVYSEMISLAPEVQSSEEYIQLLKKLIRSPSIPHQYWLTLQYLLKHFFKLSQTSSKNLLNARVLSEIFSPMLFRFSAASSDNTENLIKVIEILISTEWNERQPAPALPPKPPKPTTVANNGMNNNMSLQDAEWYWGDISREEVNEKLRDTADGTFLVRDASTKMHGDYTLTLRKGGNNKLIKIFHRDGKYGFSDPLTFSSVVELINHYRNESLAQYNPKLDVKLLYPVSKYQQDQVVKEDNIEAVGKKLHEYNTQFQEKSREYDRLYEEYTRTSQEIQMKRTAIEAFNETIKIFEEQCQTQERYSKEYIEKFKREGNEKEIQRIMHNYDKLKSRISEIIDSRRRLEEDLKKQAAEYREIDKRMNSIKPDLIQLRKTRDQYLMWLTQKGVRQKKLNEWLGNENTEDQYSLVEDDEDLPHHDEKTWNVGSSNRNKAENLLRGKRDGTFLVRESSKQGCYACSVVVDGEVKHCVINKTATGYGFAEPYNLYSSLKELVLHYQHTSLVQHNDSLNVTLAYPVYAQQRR
- ASSAY_NAME: KINATIV assay
- Assay type: cell-based
- SETUP_CONDITIONS: 1 μM, 90 minutes, BCWM.1 cells
ASSAY_METRIC: % change of MS signal compared to control sample (%)
Field format: number, assumed %, no unit text.

C=CC(=O)N1CCCCC(Nc2nccc(Nc3ncc(C(=O)Nc4c(C)cccc4C)s3)n2)C1 (stereo not shown) [Example I-7]    −42.6
C=CC(=O)N1CCC(CNc2nccc(Nc3ncc(C(=O)Nc4c(C)cccc4C)s3)n2)C1 (racemic) [Example I-8]    −10.1
C=CC(=O)N1CCC(Cn2ccc(Nc3ncc(C(=O)Nc4c(C)cccc4Cl)s3)n2)C1 (stereo not shown) [II-1]    −64.9

Shifting focus to the compound that follows.
What value of % change of MS signal compared to control sample has been reported for the following compound? C=CC(=O)N1CC[C@@H](Nc2nccc(Nc3ncc(C(=O)Nc4c(C)cccc4C)s3)n2)C1 [Example I-4] −61.3

----------
- SYSTEM_TESTED: LATS2 (Homo sapiens (Human), UniProt Q9NRM7)
- Sequence (Q9NRM7 whole entry): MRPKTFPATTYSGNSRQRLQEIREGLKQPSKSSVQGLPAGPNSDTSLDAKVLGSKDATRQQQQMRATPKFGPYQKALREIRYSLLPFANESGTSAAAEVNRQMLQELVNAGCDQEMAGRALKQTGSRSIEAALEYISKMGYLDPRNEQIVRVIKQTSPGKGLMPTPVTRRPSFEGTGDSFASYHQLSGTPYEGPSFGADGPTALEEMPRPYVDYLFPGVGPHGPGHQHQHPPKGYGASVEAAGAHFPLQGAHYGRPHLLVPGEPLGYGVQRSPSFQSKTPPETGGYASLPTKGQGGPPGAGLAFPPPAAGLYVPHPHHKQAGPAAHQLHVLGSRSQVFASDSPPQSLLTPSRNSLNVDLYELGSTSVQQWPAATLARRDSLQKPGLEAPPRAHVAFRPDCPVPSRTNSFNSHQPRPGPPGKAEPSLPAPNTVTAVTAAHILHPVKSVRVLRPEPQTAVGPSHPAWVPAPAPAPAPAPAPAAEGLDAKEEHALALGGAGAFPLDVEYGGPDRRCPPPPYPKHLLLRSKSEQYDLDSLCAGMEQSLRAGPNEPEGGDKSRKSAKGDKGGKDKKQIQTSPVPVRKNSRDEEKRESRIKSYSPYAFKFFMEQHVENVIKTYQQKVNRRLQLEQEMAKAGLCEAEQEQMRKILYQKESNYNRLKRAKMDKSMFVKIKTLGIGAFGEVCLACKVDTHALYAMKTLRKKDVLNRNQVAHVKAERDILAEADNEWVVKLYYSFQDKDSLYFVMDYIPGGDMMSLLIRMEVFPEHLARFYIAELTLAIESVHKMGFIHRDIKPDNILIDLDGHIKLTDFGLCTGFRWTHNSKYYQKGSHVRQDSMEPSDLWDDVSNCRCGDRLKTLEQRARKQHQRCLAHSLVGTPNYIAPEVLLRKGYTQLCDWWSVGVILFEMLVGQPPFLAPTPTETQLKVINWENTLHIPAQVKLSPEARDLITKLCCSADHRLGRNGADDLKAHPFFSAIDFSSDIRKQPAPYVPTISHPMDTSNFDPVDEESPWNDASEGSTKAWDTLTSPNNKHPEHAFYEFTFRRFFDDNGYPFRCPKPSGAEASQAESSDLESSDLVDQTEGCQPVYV
- ASSAY_NAME: KINATIV assay
- Format: cell-based
- SETUP_CONDITIONS: 1 μM, 90 minutes, BCWM.1 cells
Measured % change of MS signal compared to control sample values are reported for all entries that follow.
A number alone suffices; assume %.

Solved cases (3 shown):
C=CC(=O)N1CCC(CNc2nccc(Nc3ncc(C(=O)Nc4c(C)cccc4C)s3)n2)C1 (racemic) [Example I-8]    10.6
C=CC(=O)N1CCCCC(Nc2nccc(Nc3ncc(C(=O)Nc4c(C)cccc4C)s3)n2)C1 (stereo not shown) [Example I-7]    −6.6
C=CC(=O)N1CC[C@@H](Nc2nccc(Nc3ncc(C(=O)Nc4c(C)cccc4C)s3)n2)C1 [Example I-4]    −9.2

Turning now to a further compound:
May I ask what % change of MS signal compared to control sample has been recorded for C=CC(=O)N1CCC(Cn2ccc(Nc3ncc(C(=O)Nc4c(C)cccc4Cl)s3)n2)C1 (stereo not shown) [II-1] ? −2.9

----------
Listed here are molecules together with their documented % change of MS signal compared to control sample.
- SYSTEM_TESTED: ATR (Homo sapiens (Human), UniProt Q13535)
- ASSAY_NAME: KINATIV assay
- Type: cell-based
- SETUP_CONDITIONS: 1 μM, 90 minutes, BCWM.1 cells
Give the quantity in %, number only.

Using the record for C=CC(=O)N1CCC(CNc2nccc(Nc3ncc(C(=O)Nc4c(C)cccc4C)s3)n2)C1 (racemic) , report its % change of MS signal compared to control sample. −24.9

----------
- Test system: BCWM.1
- ASSAY_NAME: CellTiter-Glo Luminescent cell viability assay
- Assay type: cell-based
- SETUP_CONDITIONS: BCWM1; cell survival, 72 hours
- Description: The inhibitory activities of exemplary compounds described herein against select protein kinases and cells were determined. Cell survival following treatment of exemplary compounds described herein was assessed by CellTiter-Glo® Luminescent cell viability assay (Promega). […] Luminescent measurement is performed using the 2104 Envision® Multilabel Reader (PerkinElmer Inc.). EC50 values were calculated with […] […]
ASSAY_METRIC: pEC50
Remember the convention: pEC50 equals -log10 of concentration in molar.

Return reported pEC50; argument: Cc1nc(Nc2ncc(C(=O)Nc3c(C)cccc3Cl)s2)cc(N2CCN(CCO)CC2)n1 [Dasatinib, dasatinib, reference compound] 8.92

----------
Items are presented alongside their recorded % change of MS signal compared to control sample.
- SYSTEM_TESTED: PIK3CG (Homo sapiens (Human))
- ASSAY_NAME: KINATIV assay
- Format: cell-based
- SETUP_CONDITIONS: 1 μM, 90 minutes, BCWM.1 cells
Quick note: unit goes after the number.

Before answering, review these 3 worked examples.
C=CC(=O)N1CC[C@@H](Nc2nccc(Nc3ncc(C(=O)Nc4c(C)cccc4C)s3)n2)C1    −46.3%
C=CC(=O)N1CCC(CNc2nccc(Nc3ncc(C(=O)Nc4c(C)cccc4C)s3)n2)C1 (racemic)    −55.4%
C=CC(=O)N1CCC(Cn2ccc(Nc3ncc(C(=O)Nc4c(C)cccc4Cl)s3)n2)C1 (stereo not shown)    −45.9%

Shift focus to the following entry.
Request the reported % change of MS signal compared to control sample associated with C=CC(=O)N1CCCCC(Nc2nccc(Nc3ncc(C(=O)Nc4c(C)cccc4C)s3)n2)C1 (stereo not shown) −51.9%

----------
- SYSTEM_TESTED: UniProt Q86UE8
- Sequence (Q86UE8 whole entry): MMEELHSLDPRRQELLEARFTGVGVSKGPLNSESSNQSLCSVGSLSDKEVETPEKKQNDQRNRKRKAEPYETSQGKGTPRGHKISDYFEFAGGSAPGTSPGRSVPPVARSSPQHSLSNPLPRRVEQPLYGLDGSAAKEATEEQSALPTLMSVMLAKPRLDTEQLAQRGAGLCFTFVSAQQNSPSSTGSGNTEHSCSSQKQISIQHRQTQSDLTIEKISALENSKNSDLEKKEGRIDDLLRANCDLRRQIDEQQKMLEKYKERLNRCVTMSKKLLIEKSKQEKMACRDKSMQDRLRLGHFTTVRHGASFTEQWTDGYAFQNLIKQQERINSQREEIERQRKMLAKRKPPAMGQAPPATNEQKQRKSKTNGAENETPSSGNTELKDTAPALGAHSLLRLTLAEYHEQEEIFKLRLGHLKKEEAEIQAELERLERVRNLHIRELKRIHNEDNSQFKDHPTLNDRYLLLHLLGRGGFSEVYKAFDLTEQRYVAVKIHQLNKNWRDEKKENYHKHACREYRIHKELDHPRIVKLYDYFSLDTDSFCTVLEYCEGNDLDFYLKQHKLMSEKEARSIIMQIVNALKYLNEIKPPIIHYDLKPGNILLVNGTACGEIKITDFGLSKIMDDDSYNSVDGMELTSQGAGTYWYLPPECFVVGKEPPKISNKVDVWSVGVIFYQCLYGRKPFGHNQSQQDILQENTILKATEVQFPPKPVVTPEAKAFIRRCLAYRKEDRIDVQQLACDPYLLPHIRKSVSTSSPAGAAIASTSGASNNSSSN
- ASSAY_NAME: KINATIV assay
- Type: cell-based
- SETUP_CONDITIONS: 1 μM, 90 minutes, BCWM.1 cells
ASSAY_METRIC: % change of MS signal compared to control sample (%)
Kindly provide the numeric value in % only, without the unit symbol.

Item under review: C=CC(=O)N1CCC(CNc2nccc(Nc3ncc(C(=O)Nc4c(C)cccc4C)s3)n2)C1 (racemic) . Reported % change of MS signal compared to control sample? 9.4

----------
Reported % change of MS signal compared to control sample is given for each of the following molecules.
- SYSTEM_TESTED: STK33 (Homo sapiens (Human))
- Sequence (Q9BYT3 whole entry): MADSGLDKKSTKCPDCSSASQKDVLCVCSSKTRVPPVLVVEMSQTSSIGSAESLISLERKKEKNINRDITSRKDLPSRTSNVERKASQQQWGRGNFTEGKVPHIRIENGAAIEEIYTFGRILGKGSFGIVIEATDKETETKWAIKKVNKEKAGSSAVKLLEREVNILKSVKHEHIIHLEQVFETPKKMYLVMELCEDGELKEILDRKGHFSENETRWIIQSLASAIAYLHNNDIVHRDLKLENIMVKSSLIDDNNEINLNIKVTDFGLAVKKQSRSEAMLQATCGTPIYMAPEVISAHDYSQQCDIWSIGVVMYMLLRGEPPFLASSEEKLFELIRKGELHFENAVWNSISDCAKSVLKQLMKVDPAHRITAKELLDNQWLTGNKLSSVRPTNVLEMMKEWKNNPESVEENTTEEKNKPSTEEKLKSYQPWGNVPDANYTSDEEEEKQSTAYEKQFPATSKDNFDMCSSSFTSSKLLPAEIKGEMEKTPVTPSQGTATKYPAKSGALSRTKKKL
- ASSAY_NAME: KINATIV assay
- Type: cell-based
- SETUP_CONDITIONS: 1 μM, 90 minutes, BCWM.1 cells
Only the number, expressed in %, is required.

Illustrative cases are given below, each with its answer.
C=CC(=O)N1CCC(Cn2ccc(Nc3ncc(C(=O)Nc4c(C)cccc4Cl)s3)n2)C1 (stereo not shown)    11.0
C=CC(=O)N1CCCCC(Nc2nccc(Nc3ncc(C(=O)Nc4c(C)cccc4C)s3)n2)C1 (stereo not shown)    21.1
C=CC(=O)N1CC[C@@H](Nc2nccc(Nc3ncc(C(=O)Nc4c(C)cccc4C)s3)n2)C1    −23.0

Proceeding to the next molecule to report its % change of MS signal compared to control sample.
Please report the recorded % change of MS signal compared to control sample for C=CC(=O)N1CCC(CNc2nccc(Nc3ncc(C(=O)Nc4c(C)cccc4C)s3)n2)C1 (racemic) . 29.8

----------
The following compounds are listed with their measured % change of MS signal compared to control sample values.
- SYSTEM_TESTED: MAP3K1 (Homo sapiens (Human), UniProt Q13233)
- ASSAY_NAME: KINATIV assay
- Assay type: cell-based
- SETUP_CONDITIONS: 1 μM, 90 minutes, BCWM.1 cells
A complete answer gives the number followed by the unit.

Sample C=CC(=O)N1CCCCC(Nc2nccc(Nc3ncc(C(=O)Nc4c(C)cccc4C)s3)n2)C1 (stereo not shown) — what was its % change of MS signal compared to control sample? 7.9%

Further, for C=CC(=O)N1CCC(Cn2ccc(Nc3ncc(C(=O)Nc4c(C)cccc4Cl)s3)n2)C1 (stereo not shown) ? −1.2%

Also need C=CC(=O)N1CCC(CNc2nccc(Nc3ncc(C(=O)Nc4c(C)cccc4C)s3)n2)C1 (racemic) , thanks. 15.5%

Entry to check: C=CC(=O)N1CC[C@@H](Nc2nccc(Nc3ncc(C(=O)Nc4c(C)cccc4C)s3)n2)C1 18.4%

----------
Entries and their measured % change of MS signal compared to control sample follow.
- Test system: SRPK1, SRPK2
- ASSAY_NAME: KINATIV assay
- Format: cell-based
- SETUP_CONDITIONS: 1 μM, 90 minutes, BCWM.1 cells
Please give a number only; it is taken to be in %.

# example entries with known answers
C=CC(=O)N1CCC(CNc2nccc(Nc3ncc(C(=O)Nc4c(C)cccc4C)s3)n2)C1 (racemic) [Example I-8]    33.2
C=CC(=O)N1CC[C@@H](Nc2nccc(Nc3ncc(C(=O)Nc4c(C)cccc4C)s3)n2)C1 [Example I-4]    −14.7
C=CC(=O)N1CCCCC(Nc2nccc(Nc3ncc(C(=O)Nc4c(C)cccc4C)s3)n2)C1 (stereo not shown) [Example I-7]    17.3

Field: next compound
# query: % change of MS signal compared to control sample | item C=CC(=O)N1CCC(Cn2ccc(Nc3ncc(C(=O)Nc4c(C)cccc4Cl)s3)n2)C1 (stereo not shown) [II-1] | system: SRPK1, SRPK2 0.0
